# TESTED ON: GABAA receptor
# MEASUREMENT DESCRIPTION: [35S]-TBPS binding inhibition (in vitro potency)
# ASSAY SETUP: inhibition of specific binding of [35S]-TBPS
ENDPOINT: IC50 (µM)
// units = µM; emit number, no label

Input line: // returns reported IC50 for input "COC[C@@]1(O)CC[C@@]2(C)[C@@H](CC[C@@H]3[C@@H]2CC[C@]2(C)[C@@H](C(=O)Cn4ccnc4)CC[C@@H]32)C1"
Output line: 0.138

----------
# Tested on: human hepatocyte
# MEASUREMENT DESCRIPTION: In vitro human hepatocyte stability assay
# Assay type: in vitro ADME
# ASSAY SETUP: human hepatocytes, 1.0 hr
ENDPOINT: percentage of initial concentration (%)
Number only, in %; omit the unit.

These solved cases illustrate the format of a correct answer.
1. [2H]C(C(=O)[C@@]1([2H])CC[C@H]2[C@@H]3CC[C@H]4C[C@@](O)(COC([2H])([2H])[2H])CC[C@]4(C)[C@H]3CC[C@@]21C)n1ccnc1 (stereo partly shown)
80
2. COC[C@@]1(O)CC[C@@]2(C)[C@@H](CC[C@@H]3[C@@H]2CC[C@]2(C)[C@@H](C(=O)Cn4ccnc4)CC[C@@H]32)C1
90
3. [2H]c1nc([2H])n(CC(=O)[C@H]2CC[C@H]3[C@@H]4CC[C@H]5C[C@@](O)(COC)CC[C@]5(C)[C@H]4CC[C@]23C)c1[2H]
107

Query molecule follows.
Input line: Using the record for [2H]c1nc([2H])n(C([2H])C(=O)[C@@]2([2H])CC[C@H]3[C@@H]4CC[C@H]5C[C@@](O)(COC([2H])([2H])[2H])CC[C@]5(C)[C@H]4CC[C@@]32C)c1[2H] (stereo partly shown) , report its percentage of initial concentration.
Output line: 69

----------
# MEASUREMENT DESCRIPTION: In vivo mouse pharmacokinetics, paired oral co-dosing, plasma and brain
# Set-up: species or system mice
# ASSAY SETUP: brain, 10 mg/kg po co-dosed
Quick reference for Cmax among some compounds
Response body: numeric value in ng/g, unit text excluded.

As a guide, the following entries are already answered.
1) [2H]c1nc([2H])n(CC(=O)[C@H]2CC[C@H]3[C@@H]4CC[C@H]5C[C@@](O)(COC)CC[C@]5(C)[C@H]4CC[C@]23C)c1[2H]
7600
2) [2H]c1nc([2H])n(CC(=O)[C@H]2CC[C@H]3[C@@H]4CC[C@H]5C[C@@](O)(COC([2H])([2H])[2H])CC[C@]5(C)[C@H]4CC[C@]23C)c1[2H]
6530
3) COC[C@@]1(O)CC[C@@]2(C)[C@@H](CC[C@@H]3[C@@H]2CC[C@]2(C)[C@@H](C(=O)Cn4ccnc4)CC[C@@H]32)C1
2880
4) [2H]c1nc([2H])n(C([2H])C(=O)[C@@]2([2H])CC[C@H]3[C@@H]4CC[C@H]5C[C@@](O)(COC([2H])([2H])[2H])CC[C@]5(C)[C@H]4CC[C@@]32C)c1[2H] (stereo partly drawn)
5350
5) [2H]C([2H])([2H])OC[C@@]1(O)CC[C@@]2(C)[C@@H](CC[C@@H]3[C@@H]2CC[C@]2(C)[C@@H](C(=O)Cn4ccnc4)CC[C@@H]32)C1
2620

Attention now turns to another entry.
Input line: Look up Cmax: [2H]C(C(=O)[C@@]1([2H])CC[C@H]2[C@@H]3CC[C@H]4C[C@@](O)(COC([2H])([2H])[2H])CC[C@]4(C)[C@H]3CC[C@@]21C)n1ccnc1 (stereo partly drawn)
Output line: 5700
